# Tested on: OVCAR-3
# PROTOCOL: NCI tumour cell line growth inhibition, 48 h
Calls of active or inactive are those of the source. Cut-off read from the data, not from the text of the source: active = GI50 up to about 1.1 µM and inactive = higher.
Returns: one label drawn from active, inactive

[[record]]
molecule = "CN1CCCN(C)CCCN(C)CCCN(C)CCC1"
class_name = "inactive"


# outcome recorded in this test, key = O=C1c2cc3c(cc2CC12Cc1ccc4c(c1C2=O)CCC4)CCC3 (centres undefined) inactive

# outcome recorded in this test, key = `Fc1ccc(Nc2nnc(-c3ccccn3)s2)cc1` inactive

# outcome recorded in this test, key = CC(O)=NC(Cc1ccc2ccccc2c1)C(O)=NC(Cc1ccc(Cl)cc1)C(O)=NC(Cc1c[nH]c2ccccc12)C(O)=NC(CO)C(O)=NC(Cc1ccc(O)cc1)C(O)=NC(CCCN=C(N)N)C(O)=NC(CC(C)C)C(O)=NC(CCCN=C(N)N)C(=O)N1CCCC1C(O)=NC(C)C(=N)O (centres undefined) inactive

# outcome recorded in this test, key = `CC1=NN(C(=O)c2ccccc2O)C(=O)/C1=C/c1ccc([N+](=O)[O-])cc1` active

# outcome recorded in this test, key = `Cc1cn(Cc2ccccc2CCO)c(=S)[nH]c1=O` inactive

# outcome recorded in this test, key = COC1OC(C(C)O)C2OC(C)(C)OC12 (centres undefined) inactive

# outcome recorded in this test, key = CC(C)Oc1c(O)c2c3c(oc(=O)n3C=CC2c2ccccc2F)c1OC(C)C (centres undefined) inactive

# outcome recorded in this test, key = `N=S(c1ccccc1[N+](=O)[O-])c1ccccc1[N+](=O)[O-]` active

----------
# Test system: OVCAR-5
# PROTOCOL: NCI tumour cell line growth inhibition, 48 h
Active and inactive are the calls of the source. Cut-off read from the data, not from the text of the source: active = GI50 up to about 1.1 µM and inactive = higher.
Quick reference for GI50 among some compounds

Answered cases to consult:
[[record]]
compound = "CC1=C(C)CC2(C=C(C(C)(C)C)C(=O)C(C(C)(C)C)=C2)SC1"
reported = "20.1 µM (inactive)"

[[record]]
compound = "CCOc1cc(C2SCC(=O)N2c2nc3cc4sc(N5C(=O)CSC5c5ccc(O)c(OCC)c5)nc4cc3s2)ccc1O (stereo not given)"
reported = "> 100 µM (inactive)"

[[record]]
compound = "Nc1ccc(-c2nc3ccccc3s2)cc1"
reported = "18.7 µM (inactive)"

[[record]]
compound = "Cc1cc2c(C)nn(Cc3ccccc3)c2c(C(N)=O)c1C"
reported = "> 100 µM (inactive)"

[[record]]
compound = "CCCCCC(/C=C/[C@@H]1CC(=O)C[C@H]1O[Si](C)(C)C(C)(C)C)OCOCCOC (stereo not given in full)"
reported = "10 µM (inactive)"

[[record]]
compound = "CN(C)C(=O)OC(Cn1cncn1)(Cn1cncn1)c1ccc(Cl)cc1Cl"
reported = "> 100 µM (inactive)"


Proceed to the following item.
What the record says about `COc1ccc(-c2nc(-c3cnccn3)n(COCCO)n2)cc1` : GI50 is > 100 µM (inactive)

----------
# Tested on: MCF7
# PROTOCOL: NCI tumour cell line growth inhibition, 48 h
Calls of active or inactive are those of the source. No stated cut-off is given here; in the data, active = GI50 up to about 1.1 µM and inactive = higher.
Returns: one label drawn from active, inactive

[[record]]
compound = "COc1ccc(C(=O)N=C2N(c3ccccc3)C(=N/c3ccccc3)/C(=N\\c3ccccc3)N2c2ccccc2)cc1"
class_name = "inactive"


# outcome recorded in this test, key = `CCCCSC1=N/C(=C\c2ccc(N(C)C)cc2)C(=O)N1` inactive

# outcome recorded in this test, key = O=C(Nc1ccccc1)N1CC(CN2CCN(c3ccccc3)CC2)OC1=O (stereo not given) inactive

# outcome recorded in this test, key = COC(=O)c1ccccc1C1CN=NC12Cc1c(C)c3c(c(C)c1C2=O)CCC3 (stereo not given) inactive

# outcome recorded in this test, key = `Cc1ccc2occ/c(=N\Nc3ccccc3)c2c1` inactive

# outcome recorded in this test, key = `CCOC(=O)C1=C(C(C)=O)CSC(c2ccccc2)=N1` inactive

# outcome recorded in this test, key = `CC1=NN2C(=N)/C(=C/c3ccco3)C(=O)N=C2S1` inactive

# outcome recorded in this test, key = `N#Cc1cc(N(CCCl)CCCl)c([N+](=O)[O-])cc1[N+](=O)[O-]` inactive

# outcome recorded in this test, key = O=C1c2cc3c(cc2CC12Cc1ccc4c(c1C2=O)CCC4)CCC3 (stereo not given) inactive

# outcome recorded in this test, key = CC1=C(C#N)c2nc3ccccc3n2C(=O)C1(C)CCO (stereo not given) inactive

# outcome recorded in this test, key = `O=C(Cn1c(=O)oc2ccc(C(=O)c3ccc(F)cc3)cc21)c1ccc([N+](=O)[O-])cc1` inactive

# outcome recorded in this test, key = COc1cc(/C=C2\C(=O)N(c3cccc([N+](=O)[O-])c3)C(c3ccccc3)S2(=O)=O)cc(OC)c1OC (stereo not given) inactive

# outcome recorded in this test, key = COc1cc(/C=C2/SC(c3ccccc3)N(c3ccc(NC(C)=O)cc3)C2=O)cc(OC)c1OC (stereo not given) inactive

# outcome recorded in this test, key = COc1cc(C2c3cc4c(cc3[C@@H](Nc3ccc(F)cc3)C3COC(=O)[C@H]23)OCO4)cc(OC)c1O (stereo not given in full) active

# outcome recorded in this test, key = `Cc1ccc(-c2n[nH]c(=O)n2N2C(=O)c3ccccc3C2=O)cc1` inactive

# outcome recorded in this test, key = CC1(C)C2CC3C4CC5(Nc6ccccc6C5N41)[C@]3(C)CC2=O (stereo not given in full) inactive

# outcome recorded in this test, key = CCOP(=O)(OCC)C(C)(CC)N/C(=N\C1=NC(C(F)(F)F)(C(F)(F)F)N=C(C(F)(F)F)O1)NC(NC(C)=O)(C(F)(F)F)C(F)(F)F (stereo not given) inactive

# outcome recorded in this test, key = `Cc1ccccc1CN1CC2=C(CCN(Cc3ccccc3)C2=O)N2CCN=C12` inactive

# outcome recorded in this test, key = COc1ccc(C2C3=C(N=C4SC(C(C)=O)=C(C)N42)c2ccccc2CC3)cc1 (stereo not given) inactive

# outcome recorded in this test, key = C=CCN1C(=O)/C(=C/c2ccco2)N=C1SC1OC(COC(C)=O)C(OC(C)=O)C(OC(C)=O)C1OC(C)=O (stereo not given) inactive
